Tested on: Bacillus subtilis
experiment summary: Antibacterial activity against Bacillus subtilis ATCC 6051 assessed as diameter of the inhibition zone at 1 uM/disk after 4 hrs by disk diffusion method
Assay type: functional
experimental context: ATCC 6051, 4 h, read-out: IZ
readout kind: zone of inhibition at 1 µM (mm)
I only need the number, in mm, no unit after it.

[[record]]
molecule = "Cc1ccc(Sc2c(O)cc(S(=O)(=O)c3ccc(C)cc3)nc2C)cc1"
val = 10

[[record]]
molecule = "Cc1ccc(S(=O)(=O)c2cc(O)c(Sc3ccccc3)c(C)n2)cc1"
val = 10

[[record]]
molecule = "Cc1ccc(Oc2c(O)cc(S(=O)(=O)c3ccc(C)cc3)nc2C)cc1"
val = 7

[[record]]
molecule = "COc1nc(S(=O)(=O)c2ccccc2)cc(O)c1Sc1ccccc1"
val = 10

[[record]]
molecule = "Cc1nc(S(=O)(=O)c2ccccc2)cc(O)c1Sc1ccccc1"
val = 10


# returns recorded zone of inhibition at 1 µM (system: Bacillus subtilis) for `CCOc1nc(S(=O)(=O)c2ccccc2)cc(O)c1F` 11

Follow-up entry: `CCOc1nc(S(=O)(=O)c2ccc(C)cc2)cc(O)c1Cl` 10

Follow-up entry: CC1(C)S[C@@H]2[C@H](NC(=O)[C@H](N)c3ccccc3)C(=O)N2[C@H]1C(=O)O [AMPICILLIN] 25

Follow-up entry: `CCOc1nc(S(=O)(=O)c2ccccc2)cc(O)c1Cl` 11

Follow-up entry: `Cc1cccc(Sc2c(O)cc(S(=O)(=O)c3ccccc3)nc2C)c1` 10

Follow-up entry: `CCOc1nc(S(=O)(=O)c2ccc(C)cc2)cc(O)c1F` 11
